- experiment description: ophthalmic drug penetration and drug conversion to lanosterol in vivo (aqueous humor concentration after eye drops)
- Design: species or system New Zealand white rabbits
- condition context: aqueous humor, topical, 250 nmol per eye; 2 hours after 250 nmol dripped into each eye of New Zealand white rabbit; read-out: Average concentration of the dripped compound itself in the aqueous humor
recorded metric: concentration at 2 h (nM)
Give bare numbers, in nM.

Indicate its recorded concentration at 2 h; the compound in question is CC(C)=CCC[C@@H](C)[C@H]1CC[C@@]2(C)C3=C(CC[C@]12C)[C@@]1(C)CC[C@H](O)C(C)(C)[C@@H]1CC3 [Lanosterol]
496

* * *

- experiment description: ophthalmic drug penetration and drug conversion to lanosterol in vivo (aqueous humor concentration after eye drops)
- Design: species or system New Zealand white rabbits
- condition context: aqueous humor, topical, 250 nmol per eye; 0.5 hour after 250 nmol dripped into each eye of New Zealand white rabbit; read-out: Average concentration of the dripped compound itself in the aqueous humor
recorded metric: concentration at 0.5 h (nM)
One number for each entry, in nM.

Indicate its recorded concentration at 0.5 h; the molecule in question is CC(C)=CCC[C@@H](C)[C@H]1CC[C@@]2(C)C3=C(CC[C@]12C)[C@@]1(C)CC[C@H](O)C(C)(C)[C@@H]1CC3
106

* * *

- experiment description: ophthalmic drug penetration and drug conversion to lanosterol in vivo (aqueous humor concentration after eye drops)
- Parameters: species or system New Zealand white rabbits
- condition context: in vivo, 250 nmol per eye; 4 hours after 250 nmol dripped into each eye of New Zealand white rabbit; read-out: Average concentration of the dripped compound itself in the aqueous humor
recorded metric: concentration at 4 h (nM)
One number for each entry, in nM.

Indicate its recorded concentration at 4 h; the compound in question is CC(C)=CCC[C@@H](C)[C@H]1CC[C@@]2(C)C3=C(CC[C@]12C)[C@@]1(C)CC[C@H](OC(=O)c2ccccc2O)C(C)(C)C1CC3 (stereo partly shown)
25.5

* * *

- experiment description: ophthalmic drug penetration and drug conversion to lanosterol in vivo (aqueous humor concentration after eye drops)
- Parameters: species or system New Zealand white rabbits
- condition context: in vivo, 250 nmol per eye; 2 hours after 250 nmol dripped into each eye of New Zealand white rabbit; read-out: Average concentration of the dripped compound itself in the aqueous humor
Exercise: state measured concentration at 2 h for each of the compounds provided.
One number for each entry, in nM.

Would you be so kind as to report concentration at 2 h for each listed record?
1. CC(C)=CCC[C@@H](C)[C@H]1CC[C@@]2(C)C3=C(CC[C@]12C)[C@@]1(C)CC[C@H](OC(=O)c2ccccc2O)C(C)(C)C1CC3 (stereo partly shown)
2. CC(C)=CCC[C@@H](C)[C@H]1CC[C@@]2(C)C3=C(CC[C@]12C)[C@@]1(C)CC[C@H](OC(=O)c2ncon2)C(C)(C)C1CC3 (stereo partly shown)
3. CC(=O)Oc1ccccc1C(=O)O[C@H]1CC[C@]2(C)C3=C(CCC2C1(C)C)[C@]1(C)CC[C@H]([C@H](C)CCC=C(C)C)[C@@]1(C)CC3 (stereo partly shown)

1: 33.3; 2: 37.9; 3: 15.6

Indicate its recorded concentration at 2 h; the compound in question is COC(=O)[C@H](C)NP(=O)(Oc1ccccc1)O[C@H]1CC[C@]2(C)C3=C(CCC2C1(C)C)[C@]1(C)CC[C@H]([C@H](C)CCC=C(C)C)[C@@]1(C)CC3 (stereo partly shown)
8.6

These entries and their values trace back to patent US10738076B2.
